# assay.protocol: Single oral dose (5 mg/kg) pharmacokinetics of firocoxib in koalas, plasma HPLC, non-compartmental analysis
# stated.conditions: male, koala, plasma, po, 5 mg/kg, Firocoxib plasma concentration, K1 male; 1 h; single oral 5 mg/kg
value.kind: concentration at 1 h (ng/mL)
The answer is to be given in ng/mL; state only the numeric part.

IN: Need concentration at 1 h of CC1(C)OC(=O)C(OCC2CC2)=C1c1ccc(S(C)(=O)=O)cc1 , thanks.
OUT: 8.34

====

# assay.protocol: Single oral dose (5 mg/kg) pharmacokinetics of firocoxib in koalas, plasma HPLC, non-compartmental analysis
# stated.conditions: male, koala, plasma, po, 5 mg/kg, Firocoxib plasma concentration, K1 male; 24 h; single oral 5 mg/kg
value.kind: concentration at 24 h

IN: Need concentration at 24 h of CC1(C)OC(=O)C(OCC2CC2)=C1c1ccc(S(C)(=O)=O)cc1 , thanks.
OUT: 57.2 ng/mL

====

# assay.protocol: Single oral dose (5 mg/kg) pharmacokinetics of firocoxib in koalas, plasma HPLC, non-compartmental analysis
# stated.conditions: female, koala (Phascolarctos cinereus), plasma, po, 5 mg/kg, Firocoxib plasma concentration, K4 female; 8 h; single oral 5 mg/kg
value.kind: concentration at 8 h (ng/mL)
The answer is to be given in ng/mL; state only the numeric part.

IN: Need concentration at 8 h of CC1(C)OC(=O)C(OCC2CC2)=C1c1ccc(S(C)(=O)=O)cc1 , thanks.
OUT: 74.7

====

# assay.protocol: Single oral dose (5 mg/kg) pharmacokinetics of firocoxib in koalas, plasma HPLC, non-compartmental analysis
# stated.conditions: both, plasma, po, 5 mg/kg, ke, arithmetic mean, n = 6 koalas; single oral 5 mg/kg
value.kind: k el (s⁻¹)
The answer is to be given in s⁻¹; state only the numeric part.

IN: Need k el of CC1(C)OC(=O)C(OCC2CC2)=C1c1ccc(S(C)(=O)=O)cc1 , thanks.
OUT: 3.89e-05

====

# assay.protocol: Single oral dose (5 mg/kg) pharmacokinetics of firocoxib in koalas, plasma HPLC, non-compartmental analysis
# stated.conditions: female, koala, plasma, po, 5 mg/kg, Firocoxib plasma concentration, K5 female; 24 h; single oral 5 mg/kg
value.kind: concentration at 24 h (ng/mL)
The answer is to be given in ng/mL; state only the numeric part.

IN: Need concentration at 24 h of CC1(C)OC(=O)C(OCC2CC2)=C1c1ccc(S(C)(=O)=O)cc1 [firocoxib] , thanks.
OUT: 12.8

====

# assay.protocol: Single oral dose (5 mg/kg) pharmacokinetics of firocoxib in koalas, plasma HPLC, non-compartmental analysis
# stated.conditions: female, plasma, po, 5 mg/kg, ke, harmonic mean, female koalas (n = 3); single oral 5 mg/kg
value.kind: k el (s⁻¹)
The answer is to be given in s⁻¹; state only the numeric part.

IN: Need k el of CC1(C)OC(=O)C(OCC2CC2)=C1c1ccc(S(C)(=O)=O)cc1 , thanks.
OUT: 2.78e-05

====

# assay.protocol: Single oral dose (5 mg/kg) pharmacokinetics of firocoxib in koalas, plasma HPLC, non-compartmental analysis
# stated.conditions: male, koala (Phascolarctos cinereus), plasma, po, 5 mg/kg, Firocoxib plasma concentration, K3 male; 8 h; single oral 5 mg/kg
value.kind: concentration at 8 h

IN: Need concentration at 8 h of CC1(C)OC(=O)C(OCC2CC2)=C1c1ccc(S(C)(=O)=O)cc1 , thanks.
OUT: 128 ng/mL

====

# assay.protocol: Repeated oral dosing (5 mg/kg every 12 h, six doses) plasma trough concentrations in koalas
# Type: in vivo
# stated.conditions: female, koala (Phascolarctos cinereus), plasma, mean, females, 72 h, 5 mg/kg oral every 12 h, read-out: Firocoxib trough plasma concentration
value.kind: concentration at 72 h (ng/mL)
The answer is to be given in ng/mL; state only the numeric part.

IN: Need concentration at 72 h of CC1(C)OC(=O)C(OCC2CC2)=C1c1ccc(S(C)(=O)=O)cc1 , thanks.
OUT: 120

====

# assay.protocol: Single oral dose (5 mg/kg) pharmacokinetics of firocoxib in koalas, plasma HPLC, non-compartmental analysis
# stated.conditions: male, plasma, po, 5 mg/kg, AUC0-t, K3 male; single oral 5 mg/kg
value.kind: AUC(0-t) (ng·h/mL)
The answer is to be given in ng·h/mL; state only the numeric part.

IN: Need AUC(0-t) of CC1(C)OC(=O)C(OCC2CC2)=C1c1ccc(S(C)(=O)=O)cc1 , thanks.
OUT: 1930

====

# assay.protocol: Single oral dose (5 mg/kg) pharmacokinetics of firocoxib in koalas, plasma HPLC, non-compartmental analysis
# stated.conditions: male, plasma, po, 5 mg/kg, t1/2 (elimination half-life), K1 male; single oral 5 mg/kg
value.kind: half-life (h)
The answer is to be given in h; state only the numeric part.

IN: Need half-life of CC1(C)OC(=O)C(OCC2CC2)=C1c1ccc(S(C)(=O)=O)cc1 [firocoxib] , thanks.
OUT: 14.7

====

# assay.protocol: Single oral dose (5 mg/kg) pharmacokinetics of firocoxib in koalas, plasma HPLC, non-compartmental analysis
# stated.conditions: both, plasma, po, 5 mg/kg, MRT0-inf, arithmetic mean, n = 6 koalas; single oral 5 mg/kg
value.kind: MRT inf (h)
The answer is to be given in h; state only the numeric part.

IN: Need MRT inf of CC1(C)OC(=O)C(OCC2CC2)=C1c1ccc(S(C)(=O)=O)cc1 , thanks.
OUT: 12

====

# assay.protocol: Single oral dose (5 mg/kg) pharmacokinetics of firocoxib in koalas, plasma HPLC, non-compartmental analysis
# stated.conditions: male, plasma, po, 5 mg/kg, MRT0-inf, K3 male; single oral 5 mg/kg
value.kind: MRT inf (h)
The answer is to be given in h; state only the numeric part.

IN: Need MRT inf of CC1(C)OC(=O)C(OCC2CC2)=C1c1ccc(S(C)(=O)=O)cc1 [firocoxib] , thanks.
OUT: 6.88

====

# assay.protocol: Single oral dose (5 mg/kg) pharmacokinetics of firocoxib in koalas, plasma HPLC, non-compartmental analysis
# stated.conditions: female, plasma, po, 5 mg/kg, Vz/F, K4 female; single oral 5 mg/kg
value.kind: Vd/F
Could you kindly put the unit after your number?

IN: Need Vd/F of CC1(C)OC(=O)C(OCC2CC2)=C1c1ccc(S(C)(=O)=O)cc1 [firocoxib] , thanks.
OUT: 202 L

====

# assay.protocol: Single oral dose (5 mg/kg) pharmacokinetics of firocoxib in koalas, plasma HPLC, non-compartmental analysis
# stated.conditions: both, plasma, po, 5 mg/kg, MRT0-inf, median (range), n = 6 koalas; single oral 5 mg/kg
value.kind: MRT inf (h)
The answer is to be given in h; state only the numeric part.

IN: Need MRT inf of CC1(C)OC(=O)C(OCC2CC2)=C1c1ccc(S(C)(=O)=O)cc1 , thanks.
OUT: 12.2

====

# assay.protocol: Single oral dose (5 mg/kg) pharmacokinetics of firocoxib in koalas, plasma HPLC, non-compartmental analysis
# stated.conditions: male, plasma, po, 5 mg/kg, Vz/F, K1 male; single oral 5 mg/kg
value.kind: Vd/F (L)
The answer is to be given in L; state only the numeric part.

IN: Need Vd/F of CC1(C)OC(=O)C(OCC2CC2)=C1c1ccc(S(C)(=O)=O)cc1 , thanks.
OUT: 277

====

# assay.protocol: Single oral dose (5 mg/kg) pharmacokinetics of firocoxib in koalas, plasma HPLC, non-compartmental analysis
# stated.conditions: female, plasma, po, 5 mg/kg, ke (elimination constant), K5 female; single oral 5 mg/kg; slope from 8, 12, 24 h
value.kind: k el

IN: Need k el of CC1(C)OC(=O)C(OCC2CC2)=C1c1ccc(S(C)(=O)=O)cc1 [firocoxib] , thanks.
OUT: 1.94e-05 s⁻¹

====

# assay.protocol: Single oral dose (5 mg/kg) pharmacokinetics of firocoxib in koalas, plasma HPLC, non-compartmental analysis
# stated.conditions: male, koala (Phascolarctos cinereus), plasma, po, 5 mg/kg, Firocoxib plasma concentration, K1 male; 4 h; single oral 5 mg/kg
value.kind: concentration at 4 h (ng/mL)
The answer is to be given in ng/mL; state only the numeric part.

IN: Need concentration at 4 h of CC1(C)OC(=O)C(OCC2CC2)=C1c1ccc(S(C)(=O)=O)cc1 , thanks.
OUT: 68.3

====

# assay.protocol: Single oral dose (5 mg/kg) pharmacokinetics of firocoxib in koalas, plasma HPLC, non-compartmental analysis
# stated.conditions: male, plasma, po, 5 mg/kg, AUC0-t, arithmetic mean, male koalas (n = 3); single oral 5 mg/kg
value.kind: AUC(0-t) (ng·h/mL)
The answer is to be given in ng·h/mL; state only the numeric part.

IN: Need AUC(0-t) of CC1(C)OC(=O)C(OCC2CC2)=C1c1ccc(S(C)(=O)=O)cc1 , thanks.
OUT: 1870

====

# assay.protocol: Single oral dose (5 mg/kg) pharmacokinetics of firocoxib in koalas, plasma HPLC, non-compartmental analysis;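 also: healthy adult koalas, three per sex, anaesthetised the day before dosing for cephalic vein catheterisation, with serial blood draws and firocoxib in plasma quantified by HPLC using fluorescence detection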
# stated.conditions: female, plasma, po, 5 mg/kg, Tmax, arithmetic mean, female koalas (n = 3); single oral 5 mg/kg
value.kind: Tmax

IN: Need Tmax of CC1(C)OC(=O)C(OCC2CC2)=C1c1ccc(S(C)(=O)=O)cc1 [firocoxib] , thanks.
OUT: 3.33 h

meta.source: paper PMC12483202
